Data origin: patent US8053461B2

# TARGET_ENTITY: recombinant GST-Pim-1 kinase (Homo sapiens)
# Construct: GST
# Sequence (P11309 whole entry): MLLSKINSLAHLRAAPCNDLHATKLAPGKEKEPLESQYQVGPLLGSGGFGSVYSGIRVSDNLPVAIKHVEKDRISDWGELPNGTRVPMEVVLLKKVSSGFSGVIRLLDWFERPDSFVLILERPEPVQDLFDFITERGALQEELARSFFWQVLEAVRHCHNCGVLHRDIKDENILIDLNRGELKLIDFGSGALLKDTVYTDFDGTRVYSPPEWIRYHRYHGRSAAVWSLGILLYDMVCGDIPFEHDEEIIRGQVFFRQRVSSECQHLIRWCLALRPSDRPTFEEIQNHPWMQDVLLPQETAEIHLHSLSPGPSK
# PROTOCOL_TEXT: In vitro system for measurement of Pim-1 kinase activity (phosphorylation of biotinylated p21 peptide, OD450)
# EXPERIMENTAL_SETUP: ATP 10 μM, 25° C., 30 minutes; read-out: 50% inhibitory concentration (IC50) of Pim-1 kinase activity
pIC50: −log10 of the molar value. Where a name gives a salt, the structure may show the parent alone.
METRIC_NAME: pIC50

Below are worked cases with known answers.
CC(=O)N1C(=O)/C(=C/c2ccc(/C=C3/C(=O)Nc4ccccc43)o2)c2ccccc21 [compound (3)] ... 6.10
O=C1Nc2ccccc2/C1=C\c1ccc(/C=C2/C(=O)Nc3ccccc32)o1 [compound (1)] ... 7.30

I = CC(=O)N1C(=O)/C(=C/c2ccc(/C=C3/C(=O)Nc4ccc(C(=O)O)cc43)o2)c2ccccc21 [compound (9), sodium salt]
II = CCCC(=O)N1C(=O)/C(=C/c2ccc(/C=C3/C(=O)N(C(=O)CCC)c4ccccc43)o2)c2ccccc21 [compound (7)]
III = CC(=O)N1C(=O)/C(=C/c2ccc(/C=C3/C(=O)Nc4cc(C(=O)O)ccc43)o2)c2ccccc21 [compound (10), sodium salt]
IV = CC(=O)N1C(=O)/C(=C/c2ccc(/C=C3/C(=O)N(C(C)=O)c4ccccc43)o2)c2ccccc21 [compound (2)]
Provide the items ranked by increasing pIC50. Returns: the labels listed in the requested order.
I, III, II, IV
(I: 5.85, III: 6.24, II: 7.59, IV: 8.00)
